target: T1, soluble recombinant human uPAR/His6 (R&D Systems, Cat. # 807-UK-100) (human, UniProt Q03405 23-303); test: low resolution Biacore, mAb captured by goat anti-human, hu-uPAR 312 nM;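 also: surface plasmon resonance on a CM5 chip with goat anti-human antibody surface made by amine coupling, each mAb from supernatant captured per flow cell, kinetics fitted including mass transport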
T1 construct: range 1-303; Bought protein; also called soluble uPAR; hu-uPAR
T1 sequence (Q03405 other isoform, or with tags, fused parts or gaps limits assumed, form in doubt): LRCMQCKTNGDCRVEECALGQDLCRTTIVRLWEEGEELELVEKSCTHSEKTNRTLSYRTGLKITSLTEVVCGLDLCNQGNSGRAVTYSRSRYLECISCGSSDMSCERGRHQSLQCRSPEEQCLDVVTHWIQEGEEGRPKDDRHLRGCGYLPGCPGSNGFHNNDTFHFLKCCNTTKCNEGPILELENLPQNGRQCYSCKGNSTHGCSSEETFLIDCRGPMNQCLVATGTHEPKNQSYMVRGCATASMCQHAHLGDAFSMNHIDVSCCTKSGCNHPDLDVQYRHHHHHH
Each record here notes measured koff.

| Binder | koff, s⁻¹ |
| --- | --- |
| anti-uPAR monoclonal antibody 1.113.2 (antibody, V domains shown) VH: QVQLVESGGGVVQPGRSLRLSCAASGFTFSSYGMHWVRQAPGKGLEWVAVIWYDGSNKYYADSVKGRFTISRDNSKNTLYLQMNSLRAEDTAVYYCARDLAALYYYYGMHVWGQGTTVTVSS VL: EIVMTQSPATLSVSPGERATLSCRASQSFSSNLAWYQQKPGQAPRLLIYGASTRATGIPARFSGSGSGTEFTLTISSLQSEDFAVYYCQQNNNWPRTFGQGTKVEIK | 0.00013 |
| anti-uPAR monoclonal antibody 4.19.1 (antibody, V domains shown) VH: EVQLVESGGGLIQPGGSLRLSCAASGFSVSSNYMNWVRQAPGKGLEWVSVIYTGGSTYYADSVKGRFTISRDNSKNTLYLQMNSLRAEDTAVYYCARDTYLYGMDVWGQGTTVTVSS VL: EIVMTQSPATLSVSPGESATLSCRTSQSVSSNLAWYQQKPGQTPRLLIYGASARATGVPARFSGSGSGTEFTLTISSLQSEDFAVYYCQQYYNWPLTFGGGTKVEIK | 0.00032 |
| anti-uPAR monoclonal antibody 1.4.2 (antibody, V domains shown) VH: EVQLVESGGGLVQPGGSLRLSCAASGFTFSSYDMHWVRQATGKGLEWVSAIGTAGDTYYPGSVKGRFTISRENAKNSLYLQMNSLRAGDTAVYYCAREGDYSNYFTMVRGVTYGMDVWGQGTTVTVSS VL: DIQLTQSPSSLCASVGDRITITCRASQGISKYLAWFQQKPGKAPKSLIYGASSLQSGVPAKFSGSGSGTDFTLTISSLQPEDFATYYCQQYNSYPLTFGGGTKVEIK | 0.00096 |
